Experiment: cytotoxicity toward NIH3T3 fibroblasts, dose response, counter-screen, cell-based, ATP luminescence, mouse fibroblasts (AID 2010);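 also: cells exposed to compound for about 90 hours before reading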
Assay type: functional
Calls of active or inactive are those of the source. Rule as the data show it: actives have a measured EC50 and inactives only a lower limit.
Parameter EC50: see the listing below.
Measurement label: EC50

molecule=COc1ccc(Nc2nc(-c3cccs3)nc3ccccc23)cc1S(=O)(=O)N1CCOCC1 measurement_label=EC50 experimental_result="10.1 µM (active)"
molecule="O=C(NC(c1ccccc1)c1cc(Cl)c2cccnc2c1O)c1cccnc1 (stereo not given)" measurement_label=EC50 experimental_result="> 60 µM (not active)"
molecule=CCCCCCCCCn1c2c(c(=N)c3c1CCC3)CCCC2 measurement_label=EC50 experimental_result="3.44 µM (active)"
molecule="CCC(C)c1ccccc1NC(=O)c1cc2cccc([N+](=O)[O-])c2[nH]1 (stereo not given)" measurement_label=EC50 experimental_result="> 60 µM (not active)"
molecule=CCc1cccc(Nc2c([N+](=O)[O-])cc(C(=O)N3CC(=O)Nc4ccccc43)cc2[N+](=O)[O-])c1 measurement_label=EC50 experimental_result="> 30 µM (not active)"
